System: Staphylococcus aureus
Test: Antibacterial activity against Staphylococcus aureus 1199B by microdilution technique
Format: functional
VALUE_KIND: MIC (µM)

- SMILES_CODE: "CC[C@H]1CCc2nc(SCc3ccc(C(=O)O)cc3)c(C#N)c(C(F)(F)F)c2C1"
  REL: "="
  MEASURED_RESULT: 15
- SMILES_CODE: "Cc1ccc(S(=O)(=O)Nc2ccc3[nH]c(-c4cccn4C)nc3c2)cc1"
  REL: ">"
  MEASURED_RESULT: 273
- SMILES_CODE: "CC[C@H](C)N1C(=O)S/C(=C/c2ccc(-c3cc(C(=O)O)ccc3Cl)o2)C1=O"
  REL: "="
  MEASURED_RESULT: 123
- SMILES_CODE: "C[C@@H](NCc1cccc(OCc2ccccc2)c1)[C@@H](O)c1ccccc1"
  REL: ">"
  MEASURED_RESULT: 288

* * *

Molecular target: Quinolone resistance protein NorA (Staphylococcus aureus) (UniProt P0A0J7)
Test: Inhibition of NorA in Staphylococcus aureus 1199 assessed as reduction in ciprofloxacin MIC by microdilution technique

- COMPOUND: "CC[C@H]1CCc2nc(SCc3ccc(C(=O)O)cc3)c(C#N)c(C(F)(F)F)c2C1"
  fold change (FC): 2
- COMPOUND: "Cn1cccc1-c1nc2cc(NC(=O)c3ccccc3)ccc2[nH]1"
  fold change (FC): 4
- COMPOUND: "CC[C@H](C)N1C(=O)S/C(=C/c2ccc(-c3cc(C(=O)O)ccc3Cl)o2)C1=O"
  fold change (FC): 2
- COMPOUND: "OC(CNCc1cccc(OCc2ccccc2)c1)c1ccccc1 (stereo not given)"
  fold change (FC): 4
- COMPOUND: "C[C@@H](NCc1cccc(OCc2ccccc2)c1)[C@@H](O)c1ccccc1"
  fold change (FC): 2

* * *

Molecular target: Quinolone resistance protein NorA (Staphylococcus aureus) (UniProt P0A0J7)
Sequence (whole entry): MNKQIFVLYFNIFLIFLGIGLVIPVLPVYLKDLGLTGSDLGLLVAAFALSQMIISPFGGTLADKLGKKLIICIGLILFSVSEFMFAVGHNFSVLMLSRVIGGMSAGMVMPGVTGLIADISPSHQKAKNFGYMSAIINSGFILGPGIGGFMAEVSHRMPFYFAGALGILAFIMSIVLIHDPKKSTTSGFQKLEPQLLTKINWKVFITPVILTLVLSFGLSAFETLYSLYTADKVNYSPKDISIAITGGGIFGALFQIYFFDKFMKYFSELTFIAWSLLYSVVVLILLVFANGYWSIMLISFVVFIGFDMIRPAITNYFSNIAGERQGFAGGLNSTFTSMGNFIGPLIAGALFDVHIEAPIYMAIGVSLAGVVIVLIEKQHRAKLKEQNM
Assay: Inhibition of NorA in Staphylococcus aureus 1199B assessed as reduction in ethidium bromide efflux at 50 uM by fluorimetry after 5 mins
Assign T whenever inhibition does not fall below 5%; assign F whenever it does.

- COMPOUND: "CCC(C)N1C(=O)S/C(=C/c2ccc(C(=O)O)cc2)C1=O (stereo not given)"
  CLASS_ASSIGNMENT: "F"
- COMPOUND: "N#Cc1c(-c2ccc(F)cc2)cc(-c2ccccc2)nc1SCC(=O)N1CCC[C@@H]1C(=O)O"
  CLASS_ASSIGNMENT: "T"
- COMPOUND: "CCOC(=O)c1cn(C2CC2)c2cc(N3CCC4=C(C3)/C(=N/OC)CCS4)c(N)cc2c1=O"
  CLASS_ASSIGNMENT: "T"
- COMPOUND: "CCOC(=O)c1cn(C2CC2)c2c(C)c(N3CCC4=C(C3)C(=O)C(C)CS4)c(N)cc2c1=O (stereo not given)"
  CLASS_ASSIGNMENT: "T"
- COMPOUND: "COc1ccccc1C1=Nc2ccccc2SC1"
  CLASS_ASSIGNMENT: "F"
- COMPOUND: "CCOC(=O)c1cn(C2CC2)c2cc(N3CCC4=C(C3)/C(=N/OC)C(C)CS4)c(F)cc2c1=O (stereo not given)"
  CLASS_ASSIGNMENT: "T"
- COMPOUND: "CCOC(=O)c1cn(C2CC2)c2c(C)c(N3CCC4=C(C3)C(O)CCS4)c(N)cc2c1=O (stereo not given)"
  CLASS_ASSIGNMENT: "T"
- COMPOUND: "c1ccc(C2=Nc3ccccc3SC2)cc1"
  CLASS_ASSIGNMENT: "F"
- COMPOUND: "O=C1NC(=O)/C(=C/c2ccc(-c3cc(C(=O)O)ccc3Cl)o2)S1"
  CLASS_ASSIGNMENT: "T"

* * *

Molecular target: Quinolone resistance protein NorA (Staphylococcus aureus) (UniProt P0A0J7)
Assay: Inhibition of NorA in Staphylococcus aureus 1199B assessed as reduction in ethidium bromide efflux at 50 uM by fluorimetry after 5 mins
Reported inhibition by item:
VALUE_KIND: inhibition (%)

- COMPOUND: "CCN(CC)CCOc1ccc(-c2cc(=O)c3ccccc3n2C)cc1"
  VALUE_KIND: "inhibition"
  MEASURED_RESULT: 1.7
- COMPOUND: "CCCCOc1ccc([C@H]2C(C#N)=C(N)Oc3cc(N(CC)CC)ccc32)cc1"
  VALUE_KIND: "inhibition"
  MEASURED_RESULT: 20.5
- COMPOUND: "c1ccc(CCN(Cc2ccccc2)Cc2cccc(OCc3ccccc3)c2)cc1"
  VALUE_KIND: "inhibition"
  MEASURED_RESULT: 0
- COMPOUND: "CCOC(=O)c1cn(C2CC2)c2c(C)c(N3CCC4=C(C3)/C(=N/OC)C(C)CS4)c(N)cc2c1=O (stereo not given)"
  VALUE_KIND: "inhibition"
  MEASURED_RESULT: 21.4
- COMPOUND: "Cc1ccc(-n2c(SCc3ccc(C(=O)O)cc3)nnc2-c2ccc(Cl)cc2)cc1"
  VALUE_KIND: "inhibition"
  MEASURED_RESULT: 1.3
- COMPOUND: "COc1cc(/C=C2\\S/C(=N\\c3ccccc3)N([C@@H]3CCCC[C@@H]3C)C2=O)ccc1OCC(=O)O"
  VALUE_KIND: "inhibition"
  MEASURED_RESULT: 32.6
- COMPOUND: "Cn1c(-c2ccccc2)cc(=O)c2cc(O)c(O)cc21"
  VALUE_KIND: "inhibition"
  MEASURED_RESULT: 0
- COMPOUND: "CCOC(=O)c1cn(C2CC2)c2c(C)c(N3CCC4=C(C3)C(=O)CCS4)c(N)cc2c1=O"
  VALUE_KIND: "inhibition"
  MEASURED_RESULT: 36.8
- COMPOUND: "C[C@H](O)c1cccc(NC(=O)CC(c2ccccc2)c2ccccc2)c1"
  VALUE_KIND: "inhibition"
  MEASURED_RESULT: 31.4
- COMPOUND: "CCOc1ccc(-c2cc(=O)c3ccccc3n2C)cc1"
  VALUE_KIND: "inhibition"
  MEASURED_RESULT: 10.8

* * *

Target: Quinolone resistance protein NorA (Staphylococcus aureus)
Sequence (whole entry): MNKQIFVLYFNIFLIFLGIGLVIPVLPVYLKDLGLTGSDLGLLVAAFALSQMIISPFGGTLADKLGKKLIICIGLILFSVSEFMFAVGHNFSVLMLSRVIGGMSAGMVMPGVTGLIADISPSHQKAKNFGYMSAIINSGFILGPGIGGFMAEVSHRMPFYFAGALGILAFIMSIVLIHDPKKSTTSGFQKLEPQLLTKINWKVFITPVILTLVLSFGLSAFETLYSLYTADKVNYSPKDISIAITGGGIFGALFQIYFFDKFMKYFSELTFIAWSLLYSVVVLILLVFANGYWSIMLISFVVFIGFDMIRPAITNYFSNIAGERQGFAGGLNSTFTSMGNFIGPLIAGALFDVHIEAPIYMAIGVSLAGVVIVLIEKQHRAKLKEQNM
Assay: Inhibition of NorA in Staphylococcus aureus 1199B assessed as reduction in ethidium bromide efflux at 50 uM by fluorimetry after 5 mins

- COMPOUND: "COc1cc2c(=O)cc(-c3ccc(O)cc3)n(C)c2cc1OC"
  inhibition (%): 0
- COMPOUND: "Cc1ccc(N(CC(=O)Nc2ccc(C(N)=O)cc2)S(=O)(=O)c2ccccc2)cc1C"
  inhibition (%): 0.6
- COMPOUND: "O=C(O)c1ccc(N2C(=O)C[C@@H](S/C(=N\\c3ccccc3)Nc3ccccc3)C2=O)cc1"
  inhibition (%): 0
- COMPOUND: "CCCOc1ccc(-c2cc(OCCN(CC)CC)c3ccccc3n2)cc1"
  inhibition (%): 93.4
- COMPOUND: "CCOC(=O)c1cn(C2CC2)c2cc(N3CCNCC3)c(F)cc2c1=O"
  inhibition (%): 20.8
- COMPOUND: "CCCOc1ccc(-c2cc(=O)c3ccccc3s2)cc1"
  inhibition (%): 6.3
- COMPOUND: "CCCOc1ccc(-c2cc(=O)c3ccccc3n2CCN2CCCCC2)cc1"
  inhibition (%): 75.1
- COMPOUND: "Cc1cc(C)cc(/N=C2\\S/C(=C\\c3ccc(C(=O)O)cc3)C(=O)N2c2cc(C)cc(C)c2)c1"
  inhibition (%): 55
- COMPOUND: "CC[C@H]1CCc2nc(SCc3ccc(C(=O)O)cc3)c(C#N)c(C(F)(F)F)c2C1"
  inhibition (%): 71.7
- COMPOUND: "Cn1c(-c2ccc(O)cc2)cc(=O)c2ccccc21"
  inhibition (%): 0
- COMPOUND: "Cn1c(-c2ccc(OCCN3CCCCC3)cc2)cc(=O)c2ccccc21"
  inhibition (%): 19.8
- COMPOUND: "CCOC(=O)c1cn(C2CC2)c2c(C)c(N3CCC4=C(C3)/C(=N/O)C(C)CS4)c(N)cc2c1=O (stereo unspecified)"
  inhibition (%): 90
- COMPOUND: "CN(C)CCCN1c2ccccc2Sc2ccc(Cl)cc21"
  inhibition (%): 76
- COMPOUND: "CCN(CC)CCOc1cc(-c2ccc(OCCN3CCCCC3)cc2)nc2ccccc12"
  inhibition (%): 65.6
- COMPOUND: "CCCOc1ccc(-c2cc(=O)c3ccccc3o2)cc1"
  inhibition (%): 32.4
- COMPOUND: "CCOC(=O)c1cn(C2CC2)c2cc(N3CCC4=C(C3)C(=O)C(C)CS4)c(N)cc2c1=O (stereo unspecified)"
  inhibition (%): 63.5
- COMPOUND: "CCOC(=O)c1cn(C2CC2)c2c(C)c(N3CCC4=C(C3)/C(=N/O)CCS4)c(N)cc2c1=O"
  inhibition (%): 36.2
- COMPOUND: "CCOC(=O)c1cn(C2CC2)c2cc(N3CCC4=C(C3)/C(=N/O)C(C)CS4)c(N)cc2c1=O (stereo unspecified)"
  inhibition (%): 91.2
- COMPOUND: "CCCOc1ccc(-c2cc(=O)c3cc(OC)c(OC)cc3n2C)cc1"
  inhibition (%): 0
- COMPOUND: "CC[C@H](C)N1C(=O)S/C(=C/c2ccc(-c3cc(C(=O)O)ccc3Cl)o2)C1=O"
  inhibition (%): 81
- COMPOUND: "CCOC(=O)CCSc1nc2c(c(C(F)(F)F)c1C#N)CC(C(C)(C)C)CC2 (stereo unspecified)"
  inhibition (%): 25.2
